Please respond with reported protein stability index for every item in the list.
B1: ZNF263 (parent)
chain: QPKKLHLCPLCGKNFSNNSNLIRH

Variants of: B1
Assay: protein stability index of a GFP-peptide fusion (GPS, HEK-293T) (PSI 1-6); higher = more stable;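 further: lentivirally expressed fusions sorted by FACS into six bins by GFP to DsRed ratio, PSI derived from sequencing read proportions per bin multiplied by bin number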
Details: c terminus: a fixed tail appended
// return a plain number; no unit text

Reported protein stability index ( N17C ) = 2.33

Reported protein stability index ( F15D ) = 2.56

Reported protein stability index ( N18T ) = 2.45

Reported protein stability index ( Q1P ) = 2.43

Reported protein stability index ( K13A ) = 3.12

Reported protein stability index ( L5M ) = 2.71

Reported protein stability index ( P2K ) = 2.17

Reported protein stability index ( L7C ) = 2.3

Reported protein stability index ( K4A ) = 2.19

Reported protein stability index ( F15I ) = 2.36

Reported protein stability index ( H24C ) = 1.84
